Listing of entries alongside the reported growth.
System: NCI/ADR-RES ovarian
Procedure Details: NCI-60 one-dose screen, 48 h (100 = growth as untreated, 0 = no growth, -100 = all killed)
Experimental Conditions: 10 µM unless noted
Procedure: Growth inhibition of the NCI/ADR-RES human […] tumor cell line is measured as a screen for anti-cancer activity. Cells are grown in 96 well plates and exposed to the test compound for 48 hours. Compounds are tested at a single concentration, which is 10^-5 M for most compounds. The reported endpoint is percent growth (GI% or GIPRCNT), where numbers from 0 - 100% represent growth inhibition, and numbers from -100% - 0 represent cell death. For example, a value of 40 represents 60% growth inhibition. […]
This is part of a sample that, as a whole, favours compounds with a hit. Of some 83,000 tested, about 20% had one in any assay.
Write down the numeric answer in % and omit the unit.

Some compounds with known growth results, for comparison:
Compound: CC1=CSC2=NCCN12
growth, %: 100
--
Compound: C[N+]1(CCc2ccccc2)CCC(CCC2CC[N+](C)(CCc3ccccc3)CC2)CC1 (centres undefined)
growth, %: 105
--
Compound: C[C@@H]1CC[C@H]2[C@@H](C)C(O)O[C@@H]3O[C@]4(C)CC[C@@H]1[C@]32OO4 (some centres undefined)
growth, %: 9.21

--- query ---
Look up growth: `CCCCCCCCCCSc1ncnc2nc[nH]c12`
54.5

Hello, the source for this data is PubChem BioAssay (NCI), in case you need it.
